Some molecules, each annotated with its measured pIC50.
tested_on: recombinant human VISTA protein (Homo sapiens, UniProt Q9H7M9)
Sequence (Q9H7M9 with tags, fused parts or gaps limits assumed): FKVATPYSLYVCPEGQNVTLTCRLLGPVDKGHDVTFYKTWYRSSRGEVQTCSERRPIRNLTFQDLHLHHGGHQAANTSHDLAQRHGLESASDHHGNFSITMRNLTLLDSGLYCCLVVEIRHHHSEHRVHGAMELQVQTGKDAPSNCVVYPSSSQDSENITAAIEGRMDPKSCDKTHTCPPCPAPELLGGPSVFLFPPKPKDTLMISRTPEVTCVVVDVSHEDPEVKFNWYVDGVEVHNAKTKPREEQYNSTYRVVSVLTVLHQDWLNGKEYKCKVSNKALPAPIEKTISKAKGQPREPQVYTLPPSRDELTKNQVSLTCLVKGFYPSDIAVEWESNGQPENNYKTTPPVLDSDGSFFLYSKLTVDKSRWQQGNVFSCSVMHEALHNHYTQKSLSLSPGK
test_details: Inhibition of VISTA interaction: rescue of IFN-γ release in human PBMC (ELISA)
reported_conditions: 72 h, read-out: IC50 (VISTA interaction inhibitory activity)
pIC50: −log10 of the molar value.

| molecule | pIC50 |
| --- | --- |
| CC(=O)NCCNCc1cccc(C2=NC3C=CC(c4ccccc4)=C(C)C3S2)c1 (stereo not drawn) | 6.00 to 7.00 |
| CC(=O)NCCNCc1cccc(-c2cc3c(C)c(-c4ccccc4)ccn3c2)c1 | 6.00 to 7.00 |
| COc1cccc(-c2nc3c(C)c(-c4ccccc4)ccc3[nH]2)c1 | 6.00 to 7.00 |
| COc1cc(-c2nc3c(C)c(-c4ccccc4)ccc3[nH]2)ccc1CN1CC[C@@H](O)C1 | 7.00 to 9.00 |
| Cc1c(-c2ccccc2)ccc2[nH]c(-c3ccc(CNCC(=O)O)cc3)nc12 | 7.00 to 9.00 |
| CC(=O)NCCNC(=O)c1cccc(-c2nc3c(C)c(-c4ccccc4)ccc3[nH]2)c1 | 7.00 to 9.00 |
| CC(=O)NCCNCc1cccc(-c2cn3ncc(-c4ccccc4)c(C)c3n2)c1 | 6.00 to 7.00 |
| Cc1c(-c2ccccc2)ccc2[nH]c(-c3cccc(C(=O)NCCO)c3)nc12 | 7.00 to 9.00 |
| CCCOC(=O)c1cccc(-c2nc3c(C)c(-c4ccccc4)ccc3[nH]2)c1 | 6.00 to 7.00 |
| CC(=O)NCCNCc1cccc(-c2nc3c4c(ccc3[nH]2)OCCO4)c1 | 6.00 to 7.00 |
| Cc1c(-c2ccccc2)ccc2[nH]c(-c3ccc(CNCCO)c(OCc4cccnc4)c3)nc12 | 7.00 to 9.00 |
| Cc1c(-c2ccccc2)ccc2[nH]c(-c3cccc(S(=O)(=O)NCCO)c3)nc12 | 6.00 to 7.00 |
| CC(=O)NCCNCc1cccc(C2=NC3C=CC(c4ccccc4)=C(C)C3O2)c1 (stereo not drawn) | 6.00 to 7.00 |
| CC(=O)NCCNCc1cccc(-c2nc3cc(CO)ccn3n2)c1 | 6.00 to 7.00 |
| CC(=O)NCCNCc1ccc(-c2nc3ccc(-c4ccccc4)c(C)c3[nH]2)cc1 | 6.00 to 7.00 |
